Tested on: Cryptococcus neoformans
Conditions: Concentration 32 ug.mL-1; ASSAY_TEST Inhibition of Fungal Growth; detection method Resazurin; Absorption (OD600-OD570); plate type 384well; NBS; CORNING #3640
Description: Antifungal activity against Cryptococcus neoformans H99 ATCC 208821 (CO-ADD:FG_002); MIC in YNB media using NBS plates, by Resazurin OD(600-570)
Results with a measured potency or affinity are listed apart.
measuredParameter: Inhibition (%)
Provide the reading as a plain figure in %.

Qu. Inhibition for Cc1cc(C)c(NC(=O)Cn2nc3ccc(SC(C)(C)C)nn3c2=O)c(C)c1 ?
Ans. -25.26

Qu. Inhibition for COc1cccc(-n2ccn3c(SCC(=O)NCc4ccco4)nnc3c2=O)c1 ?
Ans. -13.76

Qu. Inhibition for COc1ccc(N(Cc2ccc(C)cc2)S(=O)(=O)c2ccc3nnc(C)n3c2)cc1 ?
Ans. -1.52

Qu. Inhibition for COc1cccc(CN(c2cccc(C)c2)S(=O)(=O)c2ccc3nnc(C)n3c2)c1 ?
Ans. -14.81

Qu. Inhibition for COc1ccc(NC(=O)Cn2nc3c4cc(-c5ccc(OC)cc5)nn4ccn3c2=O)cc1 ?
Ans. -13.09
